Value source: paper PMC12133982

system_under_test: HLA-B4601 (Homo sapiens, UniProt P01889, A329T/A93R/C349S/D201E/E100V/E187L/E204Q/E69M/E70A/I90K/K202T/N87E/R155S/R180W/S121R/S35A/S48A/V306I/V36M/Y140S)
experimental_protocol: Competitive peptide binding assay, CIR-B4601
measurement_parameters: read-out: Inhibition % of Cy5-reference peptide binding, CIR-B4601, 5μM peptide
Peptide text beside a SMILES is read from it.
For each entry below, report its inhibition at 5 µM value.

CSCC[C@H](NC(=O)[C@H](C)NC(=O)[C@@H](N)Cc1ccccc1)C(=O)N[C@@H](CCC(N)=O)C(=O)N[C@@H](CCSC)C(=O)N[C@@H](C)C(=O)N[C@@H](Cc1ccc(O)cc1)C(=O)N[C@@H](CCCNC(=N)N)C(=O)N[C@@H](Cc1ccccc1)C(=O)O [Epitope Y189]    74.8%

Moving on to another compound below.
May I ask what inhibition at 5 µM has been recorded for CC[C@H](C)[C@H](NC(=O)CNC(=O)[C@H](CC(=O)O)NC(=O)[C@H](CCCCN)NC(=O)[C@H](CC(N)=O)NC(=O)[C@H](C)NC(=O)CNC(=O)[C@H](Cc1ccc(O)cc1)NC(=O)[C@@H]1CCCN1C(=O)[C@@H](N)CC(C)C)C(=O)O [Epitope Y273] (H-LPYGANKDGI-OH; N-terminus and C-terminus assumed) ? 11.6%

* * *

system_under_test: HLA-B1301 (Homo sapiens, UniProt P01889, A65T/A93T/A95T/D138N/D201E/D98Y/E176V/E204Q/E69M/E70A/G107R/K202T/L105A/L119I/N104T/N87E/Q94N/R106L/R155S/R169L/R180L/S101N/S121R/S35A/S48T/T118I/V127L/V36M/Y140L/Y91S)
experimental_protocol: Competitive peptide binding assay, CIR-B1301
measurement_parameters: HMy2.CIR-B1301 cells, reference Cy5-[…], class from inhibition at 5 and 15 μM, flow cytometry MFI; read-out: Binding affinity with HLA-B1301
Peptide text beside a SMILES is read from it.
For each entry below, report its IC50 value.

CC[C@H](C)[C@H](NC(=O)[C@H](C)NC(=O)CNC(=O)[C@@H](NC(=O)[C@H](Cc1ccc(O)cc1)NC(=O)[C@@H](NC(=O)[C@@H](N)CC(C)C)[C@@H](C)O)[C@@H](C)O)C(=O)N[C@@H](CCCCN)C(=O)N[C@@H](CC(C)C)C(=O)O [Epitope Y243] (H-LTYTGAIKL-OH; N-terminus and C-terminus assumed)    > 15 µM
CC[C@H](C)[C@H](NC(=O)[C@H](C)NC(=O)[C@H](C)NC(=O)[C@H](CC(N)=O)NC(=O)CNC(=O)[C@H](CC(=O)O)NC(=O)[C@H](CCC(N)=O)NC(=O)[C@H](C)NC(=O)[C@@H](N)Cc1ccccc1)C(=O)O [Epitope Y246] (H-FAQDGNAAI-OH; N-terminus and C-terminus assumed)    > 15 µM
CC[C@H](C)[C@H](N)C(=O)N[C@@H](C)C(=O)N[C@@H](CC(N)=O)C(=O)N[C@@H](CCC(N)=O)C(=O)N[C@@H](Cc1ccccc1)C(=O)N[C@@H](CC(N)=O)C(=O)N[C@@H](CO)C(=O)N[C@@H](C)C(=O)N[C@H](C(=O)O)[C@@H](C)CC [Epitope Y283] (H-IANQFNSAI-OH; N-terminus and C-terminus assumed)    > 15 µM
CC(C)C[C@H](NC(=O)[C@H](CC(C)C)NC(=O)[C@@H](NC(=O)[C@@H](NC(=O)[C@@H](NC(=O)[C@H](CCC(N)=O)NC(=O)[C@H](CCC(N)=O)NC(=O)[C@H](CCCCN)NC(=O)[C@@H](N)CCCCN)[C@@H](C)O)C(C)C)[C@@H](C)O)C(=O)O [Epitope Y196] (H-KKQQTVTLL-OH; N-terminus and C-terminus assumed)    > 15 µM
CC[C@H](C)[C@H](NC(=O)[C@@H](NC(=O)[C@H](CC(N)=O)NC(=O)[C@H](CCCNC(=N)N)NC(=O)[C@H](CCCCN)NC(=O)[C@@H](NC(=O)[C@H](Cc1ccc(O)cc1)NC(=O)[C@H](C)NC(=O)[C@@H](N)Cc1ccccc1)[C@@H](C)O)C(C)C)C(=O)O [Epitope Y276] (H-FAYTKRNVI-OH; N-terminus and C-terminus assumed)    < 5 µM
CC[C@H](C)[C@H](NC(=O)[C@@H](NC(=O)[C@H](CC(C)C)NC(=O)[C@H](CCC(=O)O)NC(=O)[C@H](CO)NC(=O)[C@H](CCC(=O)O)NC(=O)[C@H](CC(C)C)NC(=O)[C@H](CC(C)C)NC(=O)[C@@H]1CCCN1C(=O)[C@@H](N)CCCNC(=N)N)C(C)C)C(=O)O [Epitope Y43] (H-RPLLESELVI-OH; N-terminus and C-terminus assumed)    5 to 15 µM

Provide each entry's IC50 from the list below.
1. CSCC[C@H](NC(=O)[C@H](CCCCN)NC(=O)CN)C(=O)N[C@@H](CCCCN)C(=O)N[C@@H](CC(=O)O)C(=O)N[C@@H](CC(C)C)C(=O)N[C@@H](CO)C(=O)N1CCC[C@H]1C(=O)N[C@@H](CCCNC(=N)N)C(=O)N[C@@H](Cc1c[nH]c2ccccc12)C(=O)O [Epitope Y224] (H-GKMKDLSPRW-OH; N-terminus and C-terminus assumed)
2. CC[C@H](C)[C@H](N)C(=O)N[C@@H](C)C(=O)N[C@@H](CCSC)C(=O)N[C@@H](C)C(=O)N[C@@H](CS)C(=O)N[C@@H](CC(C)C)C(=O)N[C@H](C(=O)NCC(=O)N[C@@H](CC(C)C)C(=O)O)C(C)C [Epitope Y253] (H-IAMACLVGL-OH; N-terminus and C-terminus assumed)
3. CC[C@H](C)[C@H](NC(=O)[C@@H](NC(=O)[C@H](CC(C)C)NC(=O)[C@H](CCC(=O)O)NC(=O)[C@H](CO)NC(=O)[C@H](CCC(=O)O)NC(=O)[C@@H](N)CC(C)C)C(C)C)C(=O)NCC(=O)N[C@@H](C)C(=O)N[C@H](C(=O)O)C(C)C [Epitope Y211] (H-LESELVIGAV-OH; N-terminus and C-terminus assumed)
4. CSCC[C@H](NC(=O)[C@H](C)NC(=O)[C@@H](N)Cc1ccccc1)C(=O)N[C@@H](CCC(N)=O)C(=O)N[C@@H](CCSC)C(=O)N[C@@H](C)C(=O)N[C@@H](Cc1ccc(O)cc1)C(=O)N[C@@H](CCCNC(=N)N)C(=O)N[C@@H](Cc1ccccc1)C(=O)O [Epitope Y189]

> 15 µM
5 to 15 µM
> 15 µM
5 to 15 µM
